B1: S. cerevisiae Abp1 (full length; SH3 domain 535-592 mutated) / Hua2 (parent)
chain 1: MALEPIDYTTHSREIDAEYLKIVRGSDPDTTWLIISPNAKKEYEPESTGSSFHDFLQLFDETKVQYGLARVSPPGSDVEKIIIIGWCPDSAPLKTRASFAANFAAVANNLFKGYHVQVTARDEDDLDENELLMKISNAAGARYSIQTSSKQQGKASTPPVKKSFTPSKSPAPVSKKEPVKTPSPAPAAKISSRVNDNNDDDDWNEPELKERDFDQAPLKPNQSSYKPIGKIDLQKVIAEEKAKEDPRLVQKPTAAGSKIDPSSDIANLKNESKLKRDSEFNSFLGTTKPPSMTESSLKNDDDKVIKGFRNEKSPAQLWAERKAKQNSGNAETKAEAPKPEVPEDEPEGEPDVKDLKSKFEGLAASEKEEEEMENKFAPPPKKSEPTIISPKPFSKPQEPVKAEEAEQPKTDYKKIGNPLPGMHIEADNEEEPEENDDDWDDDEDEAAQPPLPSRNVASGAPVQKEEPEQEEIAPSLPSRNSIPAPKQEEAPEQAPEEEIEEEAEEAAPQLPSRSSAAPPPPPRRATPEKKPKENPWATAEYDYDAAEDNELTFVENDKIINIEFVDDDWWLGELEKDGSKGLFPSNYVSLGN
chain 2: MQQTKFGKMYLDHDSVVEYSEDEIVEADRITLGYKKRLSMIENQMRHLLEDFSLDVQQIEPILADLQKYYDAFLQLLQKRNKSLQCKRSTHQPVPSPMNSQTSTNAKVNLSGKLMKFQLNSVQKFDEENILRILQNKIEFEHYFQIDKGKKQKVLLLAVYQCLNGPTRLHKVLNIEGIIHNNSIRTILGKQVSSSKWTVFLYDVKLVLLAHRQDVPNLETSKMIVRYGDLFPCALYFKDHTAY

variants of: B1; assay: DHFR protein-fragment complementation in yeast (Abp1-DHFR F[1,2] x partner-DHFR F[3]), deep mutational scanning, second methotrexate selection vs reference; conditions: with Hua2; S. cerevisiae, DHFR-PCA selection in liquid with methotrexate at 30 C, two 72 h selections (the score uses the second); reference = the pre-selection culture; not an affinity; scale: DMS score: mean over two replicates of log2(f_test/f_ref + 0.5)/ln 2, minus the synonymous-codon median
property_label: screen value
Answers are plain numbers.

Some variants with recorded screen value:
• chain 1 K576M = -1.51
• chain 1 E550D = -1.79
• chain 1 N561A = -2.29

Give screen value for each of the items listed below.
1. chain 1 W570N
2. chain 1 L590A
3. chain 1 F564I

Response:
[-2.68, -2.75, -1.74]
